# target-entity: Aldosterone Receptor (Rattus norvegicus)
# Construct: centrifuged at 100,000×g for 1 hour to give a supernatant as a kidney cytosol fraction; from tissue; host or cells: kidney cytosol of adrenalectomised Sprague-Dawley male rats
# Sequence (P22199 whole entry): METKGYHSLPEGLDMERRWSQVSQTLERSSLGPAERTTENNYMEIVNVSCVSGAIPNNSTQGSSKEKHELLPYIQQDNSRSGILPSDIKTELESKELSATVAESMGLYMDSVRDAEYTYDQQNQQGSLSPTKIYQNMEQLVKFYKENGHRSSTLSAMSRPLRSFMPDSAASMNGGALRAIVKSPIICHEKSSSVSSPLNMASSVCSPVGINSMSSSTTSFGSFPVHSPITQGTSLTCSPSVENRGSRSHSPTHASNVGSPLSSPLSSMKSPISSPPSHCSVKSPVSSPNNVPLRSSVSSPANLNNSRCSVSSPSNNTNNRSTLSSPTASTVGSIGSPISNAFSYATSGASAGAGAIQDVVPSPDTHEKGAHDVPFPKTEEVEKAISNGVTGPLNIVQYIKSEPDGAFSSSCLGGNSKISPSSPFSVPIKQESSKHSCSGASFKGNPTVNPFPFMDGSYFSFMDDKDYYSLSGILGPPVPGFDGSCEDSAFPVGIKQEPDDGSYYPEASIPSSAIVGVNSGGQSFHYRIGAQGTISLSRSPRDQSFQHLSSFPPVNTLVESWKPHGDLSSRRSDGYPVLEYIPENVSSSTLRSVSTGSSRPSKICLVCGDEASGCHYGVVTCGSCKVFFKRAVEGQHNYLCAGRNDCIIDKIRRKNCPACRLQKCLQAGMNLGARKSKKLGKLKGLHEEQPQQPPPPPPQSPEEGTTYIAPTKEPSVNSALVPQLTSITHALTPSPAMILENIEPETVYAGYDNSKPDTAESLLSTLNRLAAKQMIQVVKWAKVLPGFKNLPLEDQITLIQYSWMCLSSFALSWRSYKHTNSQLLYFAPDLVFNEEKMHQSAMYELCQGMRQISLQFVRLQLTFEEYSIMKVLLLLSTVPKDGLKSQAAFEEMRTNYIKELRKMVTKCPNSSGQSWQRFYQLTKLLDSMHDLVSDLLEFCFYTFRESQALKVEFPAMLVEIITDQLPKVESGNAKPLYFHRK
# measurement-protocol: Aldosterone Receptor Binding Assay (Experiment 1; kidney cytosol fraction, [3H]aldosterone)
# Set-up: species or system Sprague-Dawley male rats
# condition-info: [3H]aldosterone ca. 2 nM, 4° C. overnight, Ki by Cheng and Prusoff's equation
Exercise: for every item that follows, state its recorded Ki.

**Query** Item under review: `COc1cc2c(cc1NS(C)(=O)=O)OC(C)(C)C(=O)N2c1ccc(F)cc1` . Reported Ki?
**Result** < 500 nM

**Query** Item under review: `CC1(C)Oc2cc(NS(C)(=O)=O)ccc2N(c2ccc(F)cc2)C1=S` . Reported Ki?
**Result** < 500 nM

**Query** Item under review: `CS(=O)(=O)Nc1ccc2c(c1)OCC(=O)N2c1ccc(F)c(Cl)c1` . Reported Ki?
**Result** 500 to 1000 nM

**Query** Item under review: `CC1(C)Oc2cc(NS(C)(=O)=O)ccc2N(c2ccc(F)c(F)c2)C1=O` . Reported Ki?
**Result** < 500 nM

**Query** Item under review: `CS(=O)(=O)Nc1ccc2c(c1)OC1(CCC1)C(=O)N2c1ccc(F)cc1` . Reported Ki?
**Result** 500 to 1000 nM

**Query** Item under review: `CC1(C)Oc2cc(NS(C)(=O)=O)ccc2N(c2ccc(F)cc2)C1=O` . Reported Ki?
**Result** < 500 nM

**Query** Item under review: `Cc1cc(F)ccc1N1C(=O)C(C)(C)Oc2cc(NS(C)(=O)=O)ccc21` . Reported Ki?
**Result** < 500 nM

**Query** Item under review: CS(=O)(=O)Nc1ccc2c(c1)OC(c1ccccc1)C(=O)N2c1ccc(Cl)cc1 (centres unmarked) . Reported Ki?
**Result** < 500 nM

====

# target-entity: mineralocorticoid receptors (MR) (Rattus norvegicus, UniProt P22199)
# Construct: mineralocorticoid receptors (MR) derived form rat kidney; from tissue; host or cells: rat kidney
# measurement-protocol: binding assay using rat MR and 3H-aldosterone
# condition-info: MR derived from rat kidney
pKi: −log10 of the molar value.
value-kind: pKi

**Query** Item under review: `CC1(C)Oc2cc([N+](=O)[O-])c(Cl)cc2N(c2ccc(F)cc2)C1=O` . Reported pKi?
**Result** > 5.00

====

# target-entity: UniProt P15207
# Sequence (P15207 1-902): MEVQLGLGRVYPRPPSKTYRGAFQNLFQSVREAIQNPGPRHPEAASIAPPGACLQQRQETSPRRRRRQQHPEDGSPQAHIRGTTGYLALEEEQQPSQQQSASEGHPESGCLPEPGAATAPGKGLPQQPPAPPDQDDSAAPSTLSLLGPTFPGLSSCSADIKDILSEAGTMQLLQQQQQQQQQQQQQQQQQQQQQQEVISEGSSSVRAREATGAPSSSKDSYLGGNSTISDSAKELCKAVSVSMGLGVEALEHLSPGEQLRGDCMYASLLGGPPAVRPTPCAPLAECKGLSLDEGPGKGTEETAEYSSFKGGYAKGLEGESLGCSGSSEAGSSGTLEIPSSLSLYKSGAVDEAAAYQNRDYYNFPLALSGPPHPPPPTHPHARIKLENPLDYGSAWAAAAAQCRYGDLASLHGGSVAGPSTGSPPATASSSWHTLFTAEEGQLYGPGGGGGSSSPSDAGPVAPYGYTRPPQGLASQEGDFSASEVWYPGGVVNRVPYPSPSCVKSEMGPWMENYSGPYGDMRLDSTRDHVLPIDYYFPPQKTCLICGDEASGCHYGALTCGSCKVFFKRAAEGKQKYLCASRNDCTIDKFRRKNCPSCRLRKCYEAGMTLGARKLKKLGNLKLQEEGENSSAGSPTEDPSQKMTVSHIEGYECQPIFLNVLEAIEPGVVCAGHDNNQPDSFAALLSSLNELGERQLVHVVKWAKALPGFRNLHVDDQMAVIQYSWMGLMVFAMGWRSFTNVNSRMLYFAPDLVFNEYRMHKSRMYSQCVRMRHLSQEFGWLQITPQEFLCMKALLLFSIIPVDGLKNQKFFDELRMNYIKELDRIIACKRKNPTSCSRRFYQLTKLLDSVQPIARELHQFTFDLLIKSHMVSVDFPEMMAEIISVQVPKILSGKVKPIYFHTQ
pKi: −log10 of the molar value.
value-kind: pKi

**Query** Entry `CC1(C)Oc2cc(N)ccc2N(c2ccc(F)c(F)c2)C1=O` , system UniProt P15207: what pKi was measured?
**Result** > 5.00

====

value-kind: IC50

**Query** Entry `CC1(C)Oc2cc(NS(C)(=O)=O)ccc2N(c2ccccc2)C1=O` , system mineralocorticoid receptors (MR) (Rattus norvegicus): what IC50 was measured?
**Result** < 10 µM

====

# target-entity: glucocorticoid receptors (GR) (Rattus norvegicus, UniProt P06536)
# Sequence (P06536 1-795): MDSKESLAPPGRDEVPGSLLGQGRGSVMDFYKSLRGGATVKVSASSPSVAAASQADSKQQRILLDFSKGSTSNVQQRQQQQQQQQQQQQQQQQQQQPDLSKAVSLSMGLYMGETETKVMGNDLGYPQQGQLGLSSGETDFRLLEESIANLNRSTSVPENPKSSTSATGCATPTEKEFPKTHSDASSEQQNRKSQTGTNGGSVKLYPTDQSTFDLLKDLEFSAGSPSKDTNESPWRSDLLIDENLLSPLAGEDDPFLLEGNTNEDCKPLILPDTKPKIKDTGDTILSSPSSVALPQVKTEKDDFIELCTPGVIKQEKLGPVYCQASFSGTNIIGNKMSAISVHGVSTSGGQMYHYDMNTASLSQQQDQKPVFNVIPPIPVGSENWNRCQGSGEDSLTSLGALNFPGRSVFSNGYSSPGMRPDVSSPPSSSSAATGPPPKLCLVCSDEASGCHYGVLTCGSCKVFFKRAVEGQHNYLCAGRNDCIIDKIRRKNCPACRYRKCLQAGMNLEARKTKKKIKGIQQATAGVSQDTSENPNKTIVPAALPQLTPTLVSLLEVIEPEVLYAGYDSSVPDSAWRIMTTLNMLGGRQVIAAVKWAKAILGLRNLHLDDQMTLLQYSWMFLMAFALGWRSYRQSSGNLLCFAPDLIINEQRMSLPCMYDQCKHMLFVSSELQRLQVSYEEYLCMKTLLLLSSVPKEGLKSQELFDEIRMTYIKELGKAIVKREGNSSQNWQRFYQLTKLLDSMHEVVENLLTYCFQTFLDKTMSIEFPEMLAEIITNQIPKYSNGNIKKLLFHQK
pKi: −log10 of the molar value.
Exercise: for every item that follows, state its recorded pKi.

**Query** Item under review: `Cc1ccc(N2C(=O)C(C)(C)Oc3cc([N+](=O)[O-])ccc32)cc1C(F)(F)F` . Reported pKi?
**Result** > 5.00

**Query** Item under review: O=C1C(c2ccccc2)Oc2cc([N+](=O)[O-])ccc2N1c1ccc(F)cc1 (centres unmarked) . Reported pKi?
**Result** > 5.00
